Test system: 454973-116-R2-J3-PDC spheroids, viability, % test/control;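 note: spheroids exposed to compounds for seven days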
Assay: Anticancer human tumor 454973-116-R2-J3-PDC patient-derived pancreatic carcinoma cell line growth inhibition [GQUAD]
Details: curve of first compound; second compound 0.316 µM; spheroids with HUVEC and MSC
Assay Endpoint: pIC50
Notebook: values listed as pIC50 are -log10 of the concentration (mol/L).

What does the record list as pIC50 for COc1cc(C2c3cc4c(cc3C(OC3OC5COC(C)OC5C(O)C3O)C3COC(=O)C23)OCO4)cc(OC)c1O (stereo unspecified) + Cc1[nH]c2ccc(F)cc2c1-c1nc2c3cccnc3c3ncccc3c2[nH]1 ? 5.93

Then what about the compound CC1COCCN1c1cc(-c2ccnn2C)c2ccnc(-c3ccn[nH]3)c2n1 (stereo unspecified) + Cc1[nH]c2ccc(F)cc2c1-c1nc2c3cccnc3c3ncccc3c2[nH]1 ? 6.77

Then what about the compound CC1COCCN1c1cc(C2(O)CC3CCC(C2)O3)c2cnn(-c3ccn[nH]3)c2n1 (stereo unspecified) + Cc1[nH]c2ccc(F)cc2c1-c1nc2c3cccnc3c3ncccc3c2[nH]1 ? 6.79

Then what about the compound CC1COCCN1c1cc(C2(S(C)(=N)=O)CC2)nc(-c2ccnc3[nH]ccc23)n1 (stereo unspecified) + CN(C)c1ccc(Nc2c3ccc(NC(=O)CCN4CCCC4)cc3nc3cc(NC(=O)CCN4CCCC4)ccc23)cc1 ? 5.22

Then what about the compound CC[C@@]1(O)C(=O)OCc2c1cc1n(c2=O)Cc2cc3c(CN(C)C)c(O)ccc3nc2-1 + Cc1cnc(CNC(=O)c2c(=O)c3ccc(N4CCCN(C)CC4)nc3n3c2sc2ccccc23)cn1 ? 7.76

Then what about the compound CC[C@@]1(O)C(=O)OCc2c1cc1n(c2=O)Cc2cc3c(CN(C)C)c(O)ccc3nc2-1 + Cc1[nH]c2ccc(F)cc2c1-c1nc2c3cccnc3c3ncccc3c2[nH]1 ? 7.34
